- Test system: 328373-195-R-J1-PDC complex spheroids, viability % test/control
- procedure-details: Anticancer human tumor 328373-195-R-J1-PDC patient-derived head and neck squamous carcinoma cell line growth inhibition [CLK]
- study-conditions: curve of first compound; second compound 0.1 µM
pIC50: −log10 of the molar value.
Assignment: determine reported pIC50 for the given compounds.

Example entries begin here.
COc1c(OCCCN2CCOCC2)ccc2c3n(c(=NC(=O)c4cnc(N)nc4)nc12)CCN3 + CNC(=O)c1ccc(Nc2nc(OC3CCCC3)c3c(-c4ccc5nc(C)oc5c4)c[nH]c3n2)c(OC)c1 ... > 8.50
O=C(c1cc(Cc2n[nH]c(=O)c3ccccc23)ccc1F)N1CCN(C(=O)C2CC2)CC1 + CNC(=O)c1ccc(Nc2nc(OC3CCCC3)c3c(-c4ccc5nc(C)oc5c4)c[nH]c3n2)c(OC)c1 ... > 7.50
CC(C)CC(NC(=O)C(Cc1ccccc1)NC(=O)c1cnccn1)B(O)O (centres undefined) + CNC(=O)c1ccc(Nc2nc(OC3CCCC3)c3c(-c4ccc5nc(C)oc5c4)c[nH]c3n2)c(OC)c1 ... > 9.02
CCN1CCN(Cc2ccc(Nc3ncc(F)c(-c4cc(F)c5nc(C)n(C(C)C)c5c4)n3)nc2)CC1 + CNC(=O)c1ccc(Nc2nc(OC3CCCC3)c3c(-c4ccc5nc(C)oc5c4)c[nH]c3n2)c(OC)c1 ... > 8.50
CC1COCCN1c1cc(C2(S(C)(=N)=O)CC2)nc(-c2ccnc3[nH]ccc23)n1 (centres undefined) + CNC(=O)c1ccc(Nc2nc(OC3CCCC3)c3c(-c4ccc5nc(C)oc5c4)c[nH]c3n2)c(OC)c1 ... > 7.50
NC(=O)C(=Cn1cnc(-c2cc(C(F)(F)F)cc(C(F)(F)F)c2)n1)c1cncnc1 + CNC(=O)c1ccc(Nc2nc(OC3CCCC3)c3c(-c4ccc5nc(C)oc5c4)c[nH]c3n2)c(OC)c1 ... > 8.02
CC1(C)CCC(CN2CCN(c3ccc(C(=O)NS(=O)(=O)c4ccc(NCC5CCOCC5)c([N+](=O)[O-])c4)c(Oc4cnc5[nH]ccc5c4)c3)CC2)=C(c2ccc(Cl)cc2)C1 + CN1CCN(c2cc(C(=O)Nc3cc4cc(-c5cnn(C)c5)ccc4cn3)ccn2)CC1 ... < 5.00
COc1ccc([C@@H](O)c2cc(-c3ncnc4cc(N5CCOCC5)ccc34)c(F)cc2Cl)nn1 + CNC(=O)c1ccc(Nc2nc(OC3CCCC3)c3c(-c4ccc5nc(C)oc5c4)c[nH]c3n2)c(OC)c1 ... > 7.50
COC1C=CCC(C)C(C)S(=O)(=O)NC(=O)c2ccc3c(c2)N(CC2CCC21)CC1(CCCc2cc(Cl)ccc21)CO3 (centres undefined) + CNC(=O)c1ccc(Nc2nc(OC3CCCC3)c3c(-c4ccc5nc(C)oc5c4)c[nH]c3n2)c(OC)c1 ... > 7.50
O=C(c1cc(Cc2n[nH]c(=O)c3ccccc23)ccc1F)N1CCN(C(=O)C2CC2)CC1 + CN1CCN(c2cc(C(=O)Nc3cc4cc(-c5cnn(C)c5)ccc4cn3)ccn2)CC1 ... < 5.00

Required: pIC50, one value per compound below.
1. C#Cc1c(F)ccc2cc(O)cc(-c3ncc4c(N5CC6CCC(C5)N6)nc(OCC56CCCN5CC(F)C6)nc4c3F)c12 (centres undefined) + CN1CCN(c2cc(C(=O)Nc3cc4cc(-c5cnn(C)c5)ccc4cn3)ccn2)CC1
2. CCCS(=O)(=O)Nc1ccc(F)c(C(=O)c2c[nH]c3ncc(-c4ccc(Cl)cc4)cc23)c1F + CN1CCN(c2cc(C(=O)Nc3cc4cc(-c5cnn(C)c5)ccc4cn3)ccn2)CC1
3. CC(C)CC(NC(=O)C(Cc1ccccc1)NC(=O)c1cnccn1)B(O)O (centres undefined) + CN1CCN(c2cc(C(=O)Nc3cc4cc(-c5cnn(C)c5)ccc4cn3)ccn2)CC1
4. C=C(F)C(=O)N1CCN(c2nc(OCC3CCCN3C)nc3c2CCN(c2cccc4cccc(Cl)c24)C3)CC1CC#N (centres undefined) + CN1CCN(c2cc(C(=O)Nc3cc4cc(-c5cnn(C)c5)ccc4cn3)ccn2)CC1
5. C=CC(=O)N1CCN(c2nc(=O)n(-c3c(C)ccnc3C(C)C)c3nc(-c4c(O)cccc4F)c(F)cc23)C(C)C1 (centres undefined) + CN1CCN(c2cc(C(=O)Nc3cc4cc(-c5cnn(C)c5)ccc4cn3)ccn2)CC1
6. CC(=O)O[C@H]1C(=O)[C@@]2(C)[C@H]([C@H](OC(=O)c3ccccc3)[C@]3(O)C[C@H](OC(=O)[C@H](O)[C@@H](NC(=O)c4ccccc4)c4ccccc4)C(C)=C1C3(C)C)[C@]1(OC(C)=O)CO[C@@H]1C[C@@H]2O + CN1CCN(c2cc(C(=O)Nc3cc4cc(-c5cnn(C)c5)ccc4cn3)ccn2)CC1

Result block:
1. < 5.00
2. < 5.00
3. 8.82
4. 5.45
5. < 5.00
6. > 7.50

Quick batch: pIC50 for everything below.
1. Cn1ncnc1[C@H]1c2n[nH]c(=O)c3cc(F)cc(c23)N[C@@H]1c1ccc(F)cc1 + CNC(=O)c1ccc(Nc2nc(OC3CCCC3)c3c(-c4ccc5nc(C)oc5c4)c[nH]c3n2)c(OC)c1
2. CC(CO)NC(=O)c1cc(-c2ccc(Cl)cc2)nn(-c2cnn(C)c2)c1=O (centres undefined) + CN1CCN(c2cc(C(=O)Nc3cc4cc(-c5cnn(C)c5)ccc4cn3)ccn2)CC1
3. COc1cccc2c1C(=O)c1c(O)c3c(c(O)c1C2=O)CC(O)(C(=O)CO)CC3OC1CC(N)C(O)C(C)O1 (centres undefined) + CNC(=O)c1ccc(Nc2nc(OC3CCCC3)c3c(-c4ccc5nc(C)oc5c4)c[nH]c3n2)c(OC)c1

Result block:
["> 9.50", "< 5.00", "> 7.50"]

* * *

- Tested on: 328373-195-R-J1-PDC complex spheroids, viability % test/control
- procedure-details: Anticancer human tumor 328373-195-R-J1-PDC cell line growth inhibition [CLK];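 further: spheroids exposed to the agents for 7 days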
- study-conditions: curve of first compound; second compound 0.0316 µM
Provide the recorded pIC50 for the entries that follow.
Numbers only, as −log10 of the molar value.

NC(=O)C(=Cn1cnc(-c2cc(C(F)(F)F)cc(C(F)(F)F)c2)n1)c1cncnc1 + CN1CCN(c2cc(C(=O)Nc3cc4cc(-c5cnn(C)c5)ccc4cn3)ccn2)CC1 ... 7.67
C=C(F)C(=O)N1CCN(c2nc(OCC3CCCN3C)nc3c2CCN(c2cccc4cccc(Cl)c24)C3)CC1CC#N (centres undefined) + CNC(=O)c1ccc(Nc2nc(OC3CCCC3)c3c(-c4ccc5nc(C)oc5c4)c[nH]c3n2)c(OC)c1 ... 5.74

Query block: Can you share its pIC50? I mean this compound: COc1ccc([C@@H](O)c2cc(-c3ncnc4cc(N5CCOCC5)ccc34)c(F)cc2Cl)nn1 + CNC(=O)c1ccc(Nc2nc(OC3CCCC3)c3c(-c4ccc5nc(C)oc5c4)c[nH]c3n2)c(OC)c1
Result block: 5.42

* * *

- Tested on: 328373-195-R-J1-PDC complex spheroids, viability % test/control
- procedure-details: Anticancer human tumor 328373-195-R-J1-PDC cell line growth inhibition [CLK];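 further: spheroids exposed to the agents for 7 days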
- study-conditions: second compound 1 µM; first compound 0.316 µM; stronger effect = lower value
Please respond with criterion met when measured viability, T/C is strictly beneath 10%, and with criterion not met in all other cases.

Query block: In plain terms, does C=C(F)C(=O)N1CCN(c2nc(OCC3CCCN3C)nc3c2CCN(c2cccc4cccc(Cl)c24)C3)CC1CC#N (stereo not given) + CNC(=O)c1ccc(Nc2nc(OC3CCCC3)c3c(-c4ccc5nc(C)oc5c4)c[nH]c3n2)c(OC)c1 come in under 10% for viability, T/C?
Result block: criterion met

Query block: Determine whether this compound shows viability, T/C lower than 10% (ties excluded): CCCS(=O)(=O)Nc1ccc(F)c(C(=O)c2c[nH]c3ncc(-c4ccc(Cl)cc4)cc23)c1F + CNC(=O)c1ccc(Nc2nc(OC3CCCC3)c3c(-c4ccc5nc(C)oc5c4)c[nH]c3n2)c(OC)c1
Result block: criterion not met

Query block: Does CCN1CCN(Cc2ccc(Nc3ncc(F)c(-c4cc(F)c5nc(C)n(C(C)C)c5c4)n3)nc2)CC1 + CN1CCN(c2cc(C(=O)Nc3cc4cc(-c5cnn(C)c5)ccc4cn3)ccn2)CC1 have viability, T/C strictly under 10%?
Result block: criterion met

Query block: Report whether reported viability, T/C is lower than 10% (strictly) for C=C(F)C(=O)N1CCN(c2nc(OCC3CCCN3C)nc3c2CCN(c2cccc4cccc(Cl)c24)C3)CC1CC#N (stereo not given) + CN1CCN(c2cc(C(=O)Nc3cc4cc(-c5cnn(C)c5)ccc4cn3)ccn2)CC1
Result block: criterion met

Query block: Please check: viability, T/C for O=c1[nH]cc(F)c(=O)[nH]1 + CN1CCN(c2cc(C(=O)Nc3cc4cc(-c5cnn(C)c5)ccc4cn3)ccn2)CC1 , strictly under 10% or not?
Result block: criterion met

Query block: # strict comparison: is reported viability, T/C < 10%? input = CC1(C)CCC(CN2CCN(c3ccc(C(=O)NS(=O)(=O)c4ccc(NCC5CCOCC5)c([N+](=O)[O-])c4)c(Oc4cnc5[nH]ccc5c4)c3)CC2)=C(c2ccc(Cl)cc2)C1 + CN1CCN(c2cc(C(=O)Nc3cc4cc(-c5cnn(C)c5)ccc4cn3)ccn2)CC1
Result block: criterion met

Taken from PubChem BioAssay AID2060620.
